System: A673/TR/shEF
method-description: cell viability (LOESS-normalised, relative to median of negative controls) (log2 ratio); higher = more viable cells (less compound effect), active = hit call of the paper (over 3 MAD below the median)
condition-set: 25 µM; library screen: screen3; EWS-FLI1 expression: high (no doxycycline); treatment time: 72 h
The campaign covered roughly 3,200 compounds. About 300 (9.4%) showed activity. This is one part of a sample in which actives are shown more often than they occur.
// classify into 1 = active, -1 = inactive

Solved cases below.
State the result this test recorded for COc1ncc(-c2ccc3nccc(-c4ccnnc4)c3c2)cc1NS(=O)(=O)c1ccc(F)cc1F .
1

State the result this test recorded for CCCCCCCCc1ccc(CCC(N)(CO)CO)cc1 .
1

Next:
State the result this test recorded for CC1(COc2ccc3c(c2)ncn3-c2ccc3cccc(N4CCC(N)CC4)c3n2)COC1 .
1

State the result this test recorded for COc1ccc2nc([S+]([O-])Cc3ncc(C)c(OC)c3C)[nH]c2c1 (stereo not given) .
-1

State the result this test recorded for C[N+]1(C)C2CC(OC(=O)C(O)(c3cccs3)c3cccs3)CC1C1OC12 (stereo not given) .
-1
